Here is a set of molecules with reported IC50 for the protein given by its sequence, compiled from the literature.
Target protein (sequence): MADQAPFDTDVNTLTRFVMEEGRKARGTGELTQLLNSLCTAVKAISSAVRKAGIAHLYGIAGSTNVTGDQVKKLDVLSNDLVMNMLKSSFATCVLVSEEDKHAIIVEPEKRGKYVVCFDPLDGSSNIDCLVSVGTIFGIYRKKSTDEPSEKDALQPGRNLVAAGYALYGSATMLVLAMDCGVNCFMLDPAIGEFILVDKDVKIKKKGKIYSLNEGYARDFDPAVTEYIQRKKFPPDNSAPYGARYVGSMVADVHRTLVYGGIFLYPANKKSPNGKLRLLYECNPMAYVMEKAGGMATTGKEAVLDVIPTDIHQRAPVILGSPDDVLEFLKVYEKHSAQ
Numbers only, in µM.

1. Cc1cc(S(=O)(=O)NC(=O)Nc2cc(C(F)(F)F)c(F)c(N)n2)sc1CCO
0.42
2. Nc1nc(-c2ccc(P(=O)(O)O)o2)c(Cc2ccccc2)o1
0.9

Each of the following entries comes with a recorded value; kindly state IC50 for each.
1. COc1cccc(CNC(=O)N2C(=O)c3ccccc3S2(=O)=O)c1
2. CC(C)Sc1sc(N)nc1-c1ccc(P(=O)(O)O)o1

Result string:
1. 1.9
2. 0.024

Each of the following entries comes with a recorded value; kindly state IC50 for each.
1. CC(NC(=O)N1C(=O)c2ccccc2S1(=O)=O)c1ccccc1 (stereo unspecified)
2. O=c1cc(-c2ccccc2)oc2cc(O)c(O)c(O)c12
3. CC(C)Cn1c(-c2ccc(P(=O)(O)O)o2)nc2c(N)c(F)cc(CCCCCl)c21

Result string:
[8.7, 29, 0.07]

Each of the following entries comes with a recorded value; kindly state IC50 for each.
1. Cn1c(-c2ccc(P(=O)(O)O)o2)nc2c(N)cccc21
2. Nc1nc(-c2ccc(P(=O)(O)O)o2)c(CC2CC2)s1
3. Nc1nc2c(s1)Cc1ccc(OP(=O)(O)O)cc1-2

Result string:
1: 6; 2: 0.02; 3: 307
